Tested on: Ctenocephalides felis
Settings: 24 h; data from laboratory 1
PARAMETER: C. felis Mortality (%) 24 h
Report the figure in % without appending any unit label.

Example cases with answers are listed next.
smiles_representation=CC(=Nn1c(=O)[nH]nc(C)c1=O)c1cc(Cl)ccc1NS(=O)(=O)C(F)(F)F endpoint_unit=% endpoint_result=3
smiles_representation=O=S(=O)(Nc1ccc(Cl)cc1-c1cc[nH]n1)C(F)(F)F endpoint_unit=% endpoint_result=83
smiles_representation=COCN(c1ccc(Cl)cc1C(C)=NN(C)c1ccccc1)S(=O)(=O)C(F)(F)F endpoint_unit=% endpoint_result=52

Task: If you can, please state the reported C. felis Mortality (%) 24 h value of "O=S(=O)(Nc1ccc(Cl)cc1C1=NN(c2ccc(F)cc2)CC1)C(F)(F)F" .
Output: 28

Task: Given "CC(=NN1CCCCC1)c1ccc(C(F)(F)F)cc1NS(=O)(=O)C(F)(F)F" , state its recorded C. felis Mortality (%) 24 h.
Output: 22

Task: Entry under review: "CCCN(N=C(C)c1cc(Cl)ccc1NS(=O)(=O)C(F)(F)F)c1ccc(Cl)cc1Cl" . Reported C. felis Mortality (%) 24 h?
Output: 85

---

Test system: Ctenocephalides felis
Conditions: 24 h; data from laboratory 1
Lab note: anything with C. felis Mortality (%) 24 h at or over 30% counts as 1.0; the rest go in 0.0.

compound="C/C(=N\\N(C)c1cnc2ccccc2n1)c1cc(Cl)ccc1NS(=O)(=O)C(F)(F)F [Compound 210]" target_or_test_system="Ctenocephalides felis" classification=0.0
compound="CC(=NNc1ccc(Cl)cc1)c1ccccc1NS(=O)(=O)C(F)(F)F [Compound 122]" target_or_test_system="Ctenocephalides felis" classification=0.0
compound="CCN(N=C(C)c1cc(Cl)ccc1NS(=O)(=O)C(F)(F)F)c1cc(Cl)ccc1Cl [Compound 142]" target_or_test_system="Ctenocephalides felis" classification=1.0

Task: Has CC(=NN(c1ccc(Cl)c(Cl)c1)C(C)C)c1cc(Cl)ccc1NS(=O)(=O)C(F)(F)F [Compound 68] a recorded C. felis Mortality (%) 24 h greater than or equal to 30%?
Output: 1.0

Task: Exam item: decide whether the reported C. felis Mortality (%) 24 h for CCC(=NN(CC)C1CCCC1)c1cc(Cl)ccc1NS(=O)(=O)C(F)(F)F [Compound 214] is at least 30%.
Output: 1.0
